Data origin, for the record: ChEMBL document CHEMBL3507680

Recorded cytotoxicity at 70.5 h by entry
# EXPERIMENT_DESCRIPTION: Human HepG2 cell viability assay in 384 well format
# Assay type: toxicity, cell-based
# Parameters: dose 125 nL, time 70.5 hour; concentration not given beside the values
# CONDITION_PARAMETERS: HepG2 cells, read-out: Inhibition
Field: value (include unit after the number)

Below, each entry is followed by its recorded cytotoxicity at 70.5 h result.
COMPOUND	cytotoxicity at 70.5 h
c1cc(CNCC2CNc3ccnn3C2)cc(Cn2cccn2)c1 (centres undefined)	4.46%
O=C(c1ccc[nH]1)N1C[C@H]2CC[C@@H]1CN(c1ncccn1)C2	-8.11%
Cc1cc(=O)n2nc(Oc3cc(Cl)cc(Cl)c3)sc2n1	-19.3%
O=C(NCCN1CCCCCC1=O)NCc1ccc(Cl)s1	2.1%
CN(C)C(C(=O)N1Cc2ccccc2C1)c1ccccc1F (centres undefined)	-2.59%
Cc1cnc(C(=O)N2CCN(Cc3csc(C)n3)CC2)cn1	-6.71%
Cc1csc([C@@H]2C[C@H]3CN(c4ncc(F)cn4)C[C@H]3O2)n1	-2.24%
CCn1nc(C)c2c1cnn2CCNS(C)(=O)=O	-6.31%

Query block: Requested field: cytotoxicity at 70.5 h. Item: `COCCN1C(=O)C[C@@H]2[C@H]1CCN2C(=O)c1ccc[nH]1`
Result block: -5.24%

* * *

# EXPERIMENT_DESCRIPTION: Human HepG2 cell viability assay in 384 well format
# Assay type: toxicity, cell-based
# Set-up: dose 125 nL, time 70.5 hour; concentration not given beside the values
# CONDITION_PARAMETERS: HepG2 cells, read-out: Inhibition
Recorded cytotoxicity at 70.5 h by entry

COMPOUND	cytotoxicity at 70.5 h
NC(=O)CN(C(=O)Cc1ccc(C(F)(F)F)cc1)C1CCCC1	-7.24%
CCN1CCN(C(=O)Cc2ccc(S(=O)(=O)C(F)F)cc2)CC1	5.94%
Cc1n[nH]c(C)c1CNCC(O)c1ccc(F)c(F)c1 (configuration not stated)	-3.32%

Query block: Requested field: cytotoxicity at 70.5 h. Item: `Cn1cnc2c1CCN(Cc1csc(C3CCCC3)n1)C2`
Result block: -9.44%

Query block: Requested field: cytotoxicity at 70.5 h. Item: Cc1cc2n(n1)CC(CNCc1ccccc1-n1cccn1)CN2 (configuration not stated)
Result block: -4.8%

Query block: Requested field: cytotoxicity at 70.5 h. Item: `Cc1ccc2c(c1)SCC(=O)N2Cc1noc(C2CC2)n1`
Result block: 16.3%

Query block: Requested field: cytotoxicity at 70.5 h. Item: `CC(C)(C)N1CCN(C(=O)Nc2cc(C(F)(F)F)c[nH]c2=O)CC1`
Result block: 10.7%

Query block: Requested field: cytotoxicity at 70.5 h. Item: `CSCC(=O)Nc1ncn(Cc2cccc(Br)c2)n1`
Result block: -8.51%

Query block: Requested field: cytotoxicity at 70.5 h. Item: CCn1ccnc1CN1CCN(CCC(=O)NC(C)(C)C)CC1C (configuration not stated)
Result block: -1.52%

Query block: Requested field: cytotoxicity at 70.5 h. Item: Cn1ccnc1CCNC(=O)NCCC1CCCCO1 (configuration not stated)
Result block: -2.69%

Query block: Requested field: cytotoxicity at 70.5 h. Item: `CCOc1ccccc1CNC(=O)c1cnn(CC)c1C(F)(F)F`
Result block: 17.5%

Query block: Requested field: cytotoxicity at 70.5 h. Item: `Cc1n[nH]cc1CNC(=O)CCCc1cccs1`
Result block: -3.35%

* * *

Recorded cytotoxicity at 70.5 h by entry
# EXPERIMENT_DESCRIPTION: Human HepG2 cell viability assay in 384 well format
# Format: toxicity, cell-based
# Parameters: dose 125 nL, time 70.5 hour; concentration not given beside the values
# CONDITION_PARAMETERS: HepG2 cells, read-out: Inhibition
Quick reminder: number only, in %, skip the unit.

Below, each entry is followed by its recorded cytotoxicity at 70.5 h result.
MOLECULE	UNIT_STRING	MEASUREMENT
CCOCC1(CNCc2cc(O)c3cc(C)ccc3n2)CC1	%	-1.7
Cn1cc(C2CC3(CCN(C(=O)c4ccsc4)CC3)NC2=O)cn1 (configuration not stated)	%	-0.304
CNC(=O)N1CC[C@H]2N(C)CC[C@@]2(C(=O)Nc2ccccc2)CC1	%	-4.01
Cc1cnn(CC2CCCN2CCCc2nc3ccccc3o2)c1 (configuration not stated)	%	-16.1
CN(C)S(=O)(=O)N1CCN(c2cc(-n3cccc3)ncn2)CC1	%	-6
O=C1[C@H]2CN(Cc3ccc(F)cc3)C[C@H]2CN1c1ccsc1	%	-13.2

Query block: Requested field: cytotoxicity at 70.5 h. Item: `O=C(NC1CC1)c1cc(NC(=O)N2CCCC2)ccc1Cl`
Result block: -13.8

Query block: Requested field: cytotoxicity at 70.5 h. Item: O=C(CCCOc1ccc(F)cc1F)N1CCCC1Cn1cccn1 (configuration not stated)
Result block: 1.98

* * *

# EXPERIMENT_DESCRIPTION: Human HepG2 cell viability assay in 384 well format
# Assay type: toxicity, cell-based
# Parameters: dose 125 nL, time 70.5 hour; concentration not given beside the values
# CONDITION_PARAMETERS: HepG2 cells, read-out: Inhibition
READOUT_KIND: cytotoxicity at 70.5 h (%)
Quick reminder: number only, in %, skip the unit.

Query block: Requested field: cytotoxicity at 70.5 h. Item: `Cc1nn(C(C)C)c(C)c1NC(=O)c1cccnc1`
Result block: 1.88

Query block: Requested field: cytotoxicity at 70.5 h. Item: `COC(=O)CNC(=O)c1cn(Cc2ccccc2F)nn1`
Result block: -5.61

Query block: Requested field: cytotoxicity at 70.5 h. Item: `CN1CCn2c(-c3cnn(C)c3)cnc2C12CCN(CC1CC1)CC2`
Result block: -4.02

Query block: Requested field: cytotoxicity at 70.5 h. Item: `N#Cc1ccc(NCc2cc3n(n2)CCCN(C(=O)C2CCC2)C3)nc1`
Result block: -8.13

Query block: Requested field: cytotoxicity at 70.5 h. Item: `CC(C)(C#N)c1ccccc1CN1CCC(N2CCCC2=O)CC1`
Result block: 13.9

Query block: Requested field: cytotoxicity at 70.5 h. Item: `CN1CCC(n2nc(CC3CC3)nc2-c2ccc(F)cc2Cl)CC1`
Result block: -7.5

Query block: Requested field: cytotoxicity at 70.5 h. Item: `CCc1ccc(S(=O)(=O)N2CCN(CCn3ccnc3)CC2)cc1`
Result block: -0.658

Query block: Requested field: cytotoxicity at 70.5 h. Item: CC(NC(=O)CSCC#N)c1cccc(NC(=O)c2ccccc2)c1 (stereo not drawn)
Result block: 10.4

Query block: Requested field: cytotoxicity at 70.5 h. Item: CCC(CNC(=O)c1ccc(Br)o1)N1CCc2ccccc2C1 (stereo not drawn)
Result block: -7.37

Query block: Requested field: cytotoxicity at 70.5 h. Item: `Cn1nc(C#N)c2c1CN(C(=O)c1cccnc1)CCC2`
Result block: 29.4

Query block: Requested field: cytotoxicity at 70.5 h. Item: CC(C)c1noc(CN2CCC3(CCCO3)CCC2=O)n1 (stereo not drawn)
Result block: -0.624

Query block: Requested field: cytotoxicity at 70.5 h. Item: `CCc1ccc(CN2C[C@@H](c3nc(C)no3)C[C@H]3OCC[C@H]32)o1`
Result block: -3.87

Query block: Requested field: cytotoxicity at 70.5 h. Item: `CCc1nnc(CN2CC(n3cccn3)C2)o1`
Result block: -4.74

Query block: Requested field: cytotoxicity at 70.5 h. Item: CCCC1(CO)CCCN(Cc2ncccn2)C1 (stereo not drawn)
Result block: -5.25

Query block: Requested field: cytotoxicity at 70.5 h. Item: `Cc1ncsc1C(=O)N(C)Cc1ccccc1`
Result block: -4.43

Query block: Requested field: cytotoxicity at 70.5 h. Item: Cc1cc(CN(C)C(=O)NC2CCN(Cc3ccccc3)C2)no1 (stereo not drawn)
Result block: 7.2

Query block: Requested field: cytotoxicity at 70.5 h. Item: `CCOC(=O)N1CCN(C(=O)Cc2c(C)nc(C)[nH]c2=O)CC1`
Result block: 13.6

Query block: Requested field: cytotoxicity at 70.5 h. Item: CC(C)(C)n1ncc2c1NC(=O)CC2c1ccccc1 (stereo not drawn)
Result block: -7.73

Query block: Requested field: cytotoxicity at 70.5 h. Item: CC(=O)N1CCCC1c1ccc(Br)cn1 (stereo not drawn)
Result block: 1.79

Query block: Requested field: cytotoxicity at 70.5 h. Item: COc1cccc(F)c1C(C)NC(=O)NCCc1ccc(C)nc1 (stereo not drawn)
Result block: 29.6

Query block: Requested field: cytotoxicity at 70.5 h. Item: `O=C(NCc1cccc2cccnc12)N1CCC(n2cncn2)CC1`
Result block: -1.7

Query block: Requested field: cytotoxicity at 70.5 h. Item: CN1CCCC1CNC(=O)CCCOc1ccc(I)cc1 (stereo not drawn)
Result block: -0.485

Query block: Requested field: cytotoxicity at 70.5 h. Item: `Cc1cc(-n2cncn2)ccc1C(=O)Nc1ccc(N2CCCC2)cn1`
Result block: -1.24

Query block: Requested field: cytotoxicity at 70.5 h. Item: Cc1cnc(C(=O)N2C[C@H]3CCCC(OCc4cccnc4)[C@H]3C2)cn1 (stereo partly drawn)
Result block: -3.45

Query block: Requested field: cytotoxicity at 70.5 h. Item: NC(=O)c1ccnc(N2CCCC(CO)(Cc3ccccc3)C2)c1 (stereo not drawn)
Result block: -5.88

Query block: Requested field: cytotoxicity at 70.5 h. Item: `COc1ccc(CC(=O)Nc2ccc3ncn(C(C)C)c(=O)c3c2)cc1`
Result block: -5.16
